Source of measurements: ChEMBL document CHEMBL1201862

System: UO-31
method.summary: NCI tumour cell line growth inhibition, 48 h
Calls of active or inactive are those of the source. Cut-off read from the data, not from the text of the source: active = GI50 up to about 1.1 µM and inactive = higher.
Pick one and only one: 1 (yes) = active, 0 (no) = inactive

**Query** Name the outcome recorded for CCOC(=O)CCC1(C(=O)OCC)CCCCC1=O (stereo unspecified) in the assay.
**Result** 0 (no)

**Query** Name the outcome recorded for O=C(N/N=C/c1ccccc1)c1cccc2nc3ccccc3nc12 in the assay.
**Result** 0 (no)

**Query** Name the outcome recorded for ClC/C=C/COC1CCCCO1 (stereo unspecified) in the assay.
**Result** 0 (no)

**Query** Name the outcome recorded for CCCCNc1nc(N)nc(Nc2ccc(Br)cc2)c1N=O in the assay.
**Result** 0 (no)

**Query** Name the outcome recorded for CC(C)(O)[C@@H]1CC[C@@]2(C)CCCC(O)C2(O)C1 (stereo partly specified) in the assay.
**Result** 0 (no)

**Query** Name the outcome recorded for CCCCOC(=O)CNC(=O)OC/C=C/C#CC#C/C=C/COC(=O)NCC(=O)OCCCC in the assay.
**Result** 0 (no)

**Query** Name the outcome recorded for CC(C)(Oc1ccc(Cl)cc1)C(=O)N(C(=O)N1CCC(c2ccccc2)CC1)c1ccccc1 in the assay.
**Result** 0 (no)

**Query** Name the outcome recorded for Cc1c(N2C(=O)C(Cl)C2/C=C/c2ccccc2)c(=O)n(-c2ccccc2)n1C (stereo unspecified) in the assay.
**Result** 0 (no)

**Query** Name the outcome recorded for O=C1/C(=C/c2ccccc2[N+](=O)[O-])N=C(c2ccccc2)N1C1Nc2cc3c(cc2S1)NC(N1C(=O)/C(=C/c2ccccc2[N+](=O)[O-])N=C1c1ccccc1)S3 (stereo unspecified) in the assay.
**Result** 0 (no)

**Query** Name the outcome recorded for CC(NC(=O)C(N)CC(=O)O)NC(=O)N1CCCC1 (stereo unspecified) in the assay.
**Result** 0 (no)

**Query** Name the outcome recorded for C=C1CC/C=C(\C)C(=O)C[C@@H]2[C@@H]1CC2(C)C [BUDDLEDIN C] in the assay.
**Result** 0 (no)

**Query** Name the outcome recorded for CCOC(=O)C1=NOC2(C=C(Br)C(=O)C(Br)=C2)C1 in the assay.
**Result** 1 (yes)

**Query** Name the outcome recorded for C=C[C@]1(O)CCC[C@]2(C)C(=O)CCC12C (stereo partly specified) in the assay.
**Result** 0 (no)

**Query** Name the outcome recorded for O=C(O)C1C2CC3CC2CC31 (stereo unspecified) in the assay.
**Result** 0 (no)

**Query** Name the outcome recorded for COc1ccc(NC(=O)C(=O)NNC(=O)c2sc(NNC(C)=O)nc2C)c([N+](=O)[O-])c1 in the assay.
**Result** 0 (no)

**Query** Name the outcome recorded for O=Cc1coc2ccccc2c1=O in the assay.
**Result** 0 (no)

**Query** Name the outcome recorded for CC1=NN(C(=O)Cc2ccccc2)C(=O)/C1=C\c1ccc([N+](=O)[O-])cc1 in the assay.
**Result** 0 (no)

**Query** Name the outcome recorded for CCOC(=O)C(=O)N/N=C1\C(=O)Nc2ccccc21 in the assay.
**Result** 0 (no)

**Query** Name the outcome recorded for OC1(c2ccc(Cl)cc2)c2ccccc2-c2nc3ccccc3n21 (stereo unspecified) in the assay.
**Result** 0 (no)

**Query** Name the outcome recorded for COC(=O)N/N=C(/CCC(=O)Nc1ccc(C)c(C)c1)CC(=O)C(C)(C)C in the assay.
**Result** 0 (no)

**Query** Name the outcome recorded for CCOc1ccc(C2Oc3c(cccc3OC)C=C2[N+](=O)[O-])cc1OCC (stereo unspecified) in the assay.
**Result** 0 (no)

**Query** Name the outcome recorded for CSC1=Nc2ccccc2-c2nc(-c3ccccc3)cc(-c3ccccc3)c2C1 in the assay.
**Result** 0 (no)

**Query** Name the outcome recorded for NCC1Nc2ccccc2[C@@H](O)C1O (stereo partly specified) in the assay.
**Result** 0 (no)

**Query** Name the outcome recorded for CCC(C#N)NCc1ccc(CNC(C#N)CC)cc1 (stereo unspecified) in the assay.
**Result** 0 (no)

**Query** Name the outcome recorded for COc1ccc(/C(C#N)=C(/N)SCc2ccccc2Cl)cc1 in the assay.
**Result** 0 (no)

**Query** Name the outcome recorded for O=C(O/N=c1/ccc(=O)/c(=N\OC(=O)c2ccccc2)c1=O)c1ccccc1 in the assay.
**Result** 0 (no)

**Query** Name the outcome recorded for COc1cc([C@@H]2c3cc4c(cc3[C@@H](NC(=O)c3ccc(OC(C)=O)cc3)C3COC(=O)[C@@H]32)OCO4)cc(OC)c1O (stereo partly specified) in the assay.
**Result** 0 (no)

**Query** Name the outcome recorded for CCOC(=O)C[C@@]12CCCNC1(C)CCc1ccccc12 (stereo partly specified) in the assay.
**Result** 0 (no)

**Query** Name the outcome recorded for CCSc1nc(=S)n(-c2ccccc2)c(C)c1C(C)=O in the assay.
**Result** 0 (no)

**Query** Name the outcome recorded for C/C(=N/NC(=S)Nc1cccc(Cl)c1)c1ccccn1 in the assay.
**Result** 1 (yes)

**Query** Name the outcome recorded for O=C1OC(c2ccccc2)=N/C1=C/NC(Cc1ccccc1)C(=O)O (stereo unspecified) in the assay.
**Result** 0 (no)

----------
System: SN12C
method.summary: NCI tumour cell line growth inhibition, 48 h
The source made the active and inactive calls. No stated cut-off is given here; in the data, active = GI50 up to about 1.1 µM and inactive = higher.
Pick one and only one: active, inactive

**Query** Name the outcome recorded for CCN(CC)CC(=O)O[C@]1(CC)C(=O)OCc2c1cc1n(c2=O)Cc2cc3ccccc3nc2-1 in the assay.
**Result** active

**Query** Name the outcome recorded for O=C(N/N=C/c1ccccc1)c1cccc2nc3ccccc3nc12 in the assay.
**Result** inactive

**Query** Name the outcome recorded for CCOC(=O)Cn1nnc2ccc(Nc3nc4ccccc4nc3-c3ccccc3)cc21 in the assay.
**Result** inactive

**Query** Name the outcome recorded for CCn1c(O)c(C(=O)NC(C)c2ccc([N+](=O)[O-])cc2)c(=O)n(CC)c1=S (configuration not stated) in the assay.
**Result** inactive

**Query** Name the outcome recorded for Cc1cccc(N2C(=O)C(=O)C(c3nc4ccccc4s3)C(=O)C2=O)c1C in the assay.
**Result** inactive

**Query** Name the outcome recorded for COc1cccc(C2c3cc4c(cc3OC(N3CCOCC3)C2C)OCO4)c1 (configuration not stated) in the assay.
**Result** inactive

**Query** Name the outcome recorded for O=C(OCc1ccccc1)c1ccc(NCc2cc(O)ccc2O)cc1 in the assay.
**Result** inactive

**Query** Name the outcome recorded for CCOC(=O)C(=C(SC)SC)c1nn2c(=O)cc(C)nc2s1 in the assay.
**Result** inactive

**Query** Name the outcome recorded for c1ccc2sc(C3(N4CCCCC4)CCCC3)cc2c1 in the assay.
**Result** inactive

**Query** Name the outcome recorded for CCC1CNC(=O)CC1CC(=O)OC (configuration not stated) in the assay.
**Result** inactive

**Query** Name the outcome recorded for C#CCN(Cc1ccc2nc(-c3ccccc3)c(Cl)nc2c1)c1ccc(F)cc1 in the assay.
**Result** inactive

**Query** Name the outcome recorded for CCOC(=O)CC(C)C1(C(=O)OCC)CCCCC1=O (configuration not stated) in the assay.
**Result** inactive

**Query** Name the outcome recorded for CCCCCCCc1cscc1-c1cscc1Br in the assay.
**Result** inactive

**Query** Name the outcome recorded for Nn1c(CCCCCCCCc2nnc(-c3c(O)ccc4ccccc34)n2N)nnc1-c1c(O)ccc2ccccc12 in the assay.
**Result** inactive

**Query** Name the outcome recorded for COc1nc2c(c(=O)[nH]1)N=C(c1ccccc1)CC(c1ccccc1)N2 (configuration not stated) in the assay.
**Result** inactive

**Query** Name the outcome recorded for O=C1C(=Cc2ccccc2[N+](=O)[O-])N=C(c2ccccc2)N1n1c(-c2ccccc2)nc2ccccc2c1=O in the assay.
**Result** inactive

**Query** Name the outcome recorded for C=C1CC/C=C(\C)C(=O)C[C@@H]2[C@@H]1CC2(C)C in the assay.
**Result** inactive

----------
For each record, write down the corresponding GI50.
Test system: UACC-257
method.summary: NCI tumour cell line growth inhibition, 48 h
Calls of active or inactive are those of the source. Cut-off read from the data, not from the text of the source: active = GI50 up to about 1.1 µM and inactive = higher.

Consider CC(=O)OCC1OC(Oc2cc(C)c(O)cc2C/C=C(\C)CC/C=C(\C)C[C@@H](C=C(C)C)OC(C)=O)C(O)C(OC(C)=O)C1OC(C)=O (stereo partly specified) . Its measured GI50 is 10 µM (inactive)

Consider CC1=NN(C(=O)Cc2ccccc2)C(=O)/C1=C\c1ccc([N+](=O)[O-])cc1 . Its measured GI50 is > 100 µM (inactive)

Consider CC1(c2cccc(N)c2)C2C(=O)NC(=O)C1C(=O)NC2=O (stereo unspecified) . Its measured GI50 is 37.9 µM (inactive)

Consider Oc1ccc(-c2nc3cc(C(F)(F)F)ccc3n2CC2CCCN3CCCCC23)cc1 (stereo unspecified) . Its measured GI50 is 16.3 µM (inactive)

Consider C=CCNC(=O)N(CCC)CCCC(NC(C)=O)C(=O)NCc1ccccc1 (stereo unspecified) . Its measured GI50 is > 100 µM (inactive)

Consider O=C1OC(OC/C(Br)=C(/Br)COC2OC(=O)C(Cl)=C2Cl)C(Cl)=C1Cl (stereo unspecified) . Its measured GI50 is 12.1 µM (inactive)

Consider CC1=CC=C2C(C)(C)CC[C@@H]3OC(=O)[C@H]1[C@]23C . Its measured GI50 is > 100 µM (inactive)

Consider COC(=O)N[C@@H]1C[C@H]2CC[C@]1(O[Si](C(C)C)(C(C)C)C(C)C)C(=O)C2 . Its measured GI50 is 11.8 µM (inactive)

Consider CC1(/C=C/CCSc2ccccc2)CC(=O)C2CC1C2(C)C (stereo unspecified) . Its measured GI50 is 14.7 µM (inactive)

Consider COc1cc2c(cc1OC)C1(COc3cc(O)c(O)c(O)c3C1=O)C2 (stereo unspecified) . Its measured GI50 is > 50 µM (inactive)

Consider NC1=C(O)c2cccc3cccc(c23)C1=O . Its measured GI50 is > 100 µM (inactive)

Consider CC(C)(Cl)C(Br)CC/C(=C/CCl)CBr.CC(C)(Cl)C(Br)CC/C(=C\CCl)CBr (stereo unspecified) . Its measured GI50 is 2.5 µM (inactive)

Consider CCOC(=O)CCC1(C(=O)OCC)CCCCC1=O (stereo unspecified) . Its measured GI50 is > 100 µM (inactive)

Consider S=C(NN=C1NCCCN1)Nc1ccccc1 . Its measured GI50 is > 100 µM (inactive)

Consider C=C1CC(CNc2cc(Cl)nc(N)n2)C1 . Its measured GI50 is 39.6 µM (inactive)

Consider CCOC(=O)c1cn(CC)c2ccc3c(c2c1=O)S(=O)(=O)C=C3 . Its measured GI50 is > 100 µM (inactive)

Consider CC1OC(OC2C(Oc3cc(O)c4c(c3)O[C@H](c3ccc(O)cc3)CC4=O)OC(CO)C(O)C2O)C(O)C(O)C1O (stereo partly specified) . Its measured GI50 is > 100 µM (inactive)

Consider O=C(O)CNC(=O)C1NC(C(F)(F)F)(C(F)(F)F)OC1(C(F)(F)F)C(F)(F)F (stereo unspecified) . Its measured GI50 is > 100 µM (inactive)

Consider Cc1c(OC(C)C(=O)O)ccc2c(-c3ccccc3)cc(=O)oc12 (stereo unspecified) . Its measured GI50 is > 100 µM (inactive)

Consider O=C(C(Cl)Cl)N(O)c1ccccc1OCc1ccccc1 . Its measured GI50 is 13.7 µM (inactive)

Consider O=C(OCc1ccccc1)c1ccc(NCc2cc(O)ccc2O)cc1 . Its measured GI50 is 1.6 µM (inactive)

Consider CCCCCCc1cc2cc(-c3csc(CC#N)n3)c(=O)oc2cc1O . Its measured GI50 is > 100 µM (inactive)

Consider O=[N+]([O-])c1ccc(/C=N/C23CC4CC(CC(C4)C2)C3)cc1 . Its measured GI50 is > 100 µM (inactive)

Consider COc1ccc(-c2cs/c(=N\c3ccccc3)n2CCCN(C)C)cc1 . Its measured GI50 is 18.9 µM (inactive)

Consider C=C1C(=O)OC2C1CC(O)/C(C)=C\CCC1(C)OC21 (stereo unspecified) . Its measured GI50 is 34 µM (inactive)

Consider CC(C)=CCC[C@@H](C)C1=C(O)C(=O)C(C)=C(Nc2ccccc2)C1=O . Its measured GI50 is 28.1 µM (inactive)

Consider CCOC(=O)Cc1cc(OC)c(OC)cc1/C(Cl)=C(\CO)c1ccc(OC)c(OC)c1 . Its measured GI50 is > 100 µM (inactive)

Consider COc1cc2cc3c4cc(OC)c(OC)cc4cc[n+]3c(C)c2cc1OC.O=C([O-])CS(=O)(=O)O . Its measured GI50 is 39.7 µM (inactive)

Consider COC(=O)[C@H](Cc1ccccc1)NP(=O)(O)OCC1OC(n2cc(C)c(=O)[nH]c2=O)CC1N=[N+]=[N-] (stereo partly specified) . Its measured GI50 is > 100 µM (inactive)

Consider CCOC(=O)CC(C)C1(C(=O)OCC)CCCCC1=O (stereo unspecified) . Its measured GI50 is > 100 µM (inactive)

Consider CC(C)(Oc1ccc(Cl)cc1)C(=O)N(C(=O)N1CCC(c2ccccc2)CC1)c1ccccc1 . Its measured GI50 is 11 µM (inactive)

Consider O=c1cc(-c2ccccc2F)[nH]c2cc3c(cc12)OCO3 . Its measured GI50 is 1.2 µM (inactive)

Consider COC(=O)N1C[C@@]2(C=CC3(CC2)OCCO3)c2ccccc21 . Its measured GI50 is 71.3 µM (inactive)

Consider O=C(OCc1ccccc1)N1CCNCCNCCN(C(=O)OCc2ccccc2)CCNCC1 . Its measured GI50 is 16.5 µM (inactive)

Consider OC1(c2ccc(Cl)cc2)c2ccccc2-c2nc3ccccc3n21 (stereo unspecified) . Its measured GI50 is > 100 µM (inactive)

Consider CCCC[Si](CCCC)(CCCC)O[C@@H](/C=C/C(=O)OCC)[C@H](Cc1ccccc1)O[Si](CCCC)(CCCC)CCCC . Its measured GI50 is > 100 µM (inactive)
